Would you kindly list Total Cell Count for each of these compounds?
- System: Fibroblast
- measurement-protocol: Multiplex assay against human fibroblast
- Type: toxicity, cell-based
- details: 24 h, 1 µM, compound concentration 1 uM, replicate 2
// no unit string in output, number only

Value of Total Cell Count reported for the compound `CC(C)(C)c1cc(NC(=O)Nc2ccc(-c3cn4c(n3)sc3cc(OCCN5CCOCC5)ccc34)cc2)no1` is 152

Value of Total Cell Count reported for the compound `CCc1cc2cc(NS(=O)(=O)c3ccc(C#N)cc3)ccc2n(CC)c1=O` is 164

Value of Total Cell Count reported for the compound `N#Cc1c(Oc2cccc(OS(=O)(=O)CCCC(F)(F)F)c2)cccc1C(F)(F)F` is 147

Value of Total Cell Count reported for the compound Cc1sc2c(c1C)C(c1ccc(Cl)cc1)=N[C@@H](CC(=O)NCCCCCCCCNC(=O)COc1cccc3c1C(=O)N(C1CCC(=O)NC1=O)C3=O)c1nnc(C)n1-2 (stereo partly drawn) is 80

Value of Total Cell Count reported for the compound COC[C@@H](c1ccc(C(F)(F)F)cc1)N1CCN(C2(C)CCN(C(=O)c3c(C)ncnc3C)CC2)C[C@@H]1C.O=C(O)/C=C\C(=O)O [VICRIVIROC MALEATE] is 204

Value of Total Cell Count reported for the compound `C[C@H](N)COC(=O)[C@@H](CCCCN)NC(=O)Cc1c(-c2ccc3ccccc3c2)[nH]c2c1ccc1ccccc12` is 162

Value of Total Cell Count reported for the compound `CC[C@@H](C)Nc1nc(C)nc2c(-c3ccc(OC)nc3C)c(C)nn12` is 108

Value of Total Cell Count reported for the compound `COc1ccccc1N1CCN(C[C@@H](C(=O)NC(C)(C)C)c2ccccc2)CC1.Cl.Cl` is 151

###

- Test system: HEK-293T
- measurement-protocol: Multiplex assay against HEK293T
- Type: toxicity, cell-based
- details: human, 12 h, 10 µM, compound concentration 10 uM, replicate 2
quantity: Population Healthy Nuclei (%)
Answer with the number, then the unit.

Tested on HEK-293T: `N#Cc1c(Oc2cccc(OS(=O)(=O)CCCC(F)(F)F)c2)cccc1C(F)(F)F` . Observed Population Healthy Nuclei (%): 64%

Tested on HEK-293T: COC[C@@H](c1ccc(C(F)(F)F)cc1)N1CCN(C2(C)CCN(C(=O)c3c(C)ncnc3C)CC2)C[C@@H]1C.O=C(O)/C=C\C(=O)O [VICRIVIROC MALEATE] . Observed Population Healthy Nuclei (%): 72%

Tested on HEK-293T: `CCC(=O)N1CCN(c2ccc(-n3c(=O)ccc4cnc5ccc(-c6cnc7ccccc7c6)cc5c43)cc2C(F)(F)F)CC1` . Observed Population Healthy Nuclei (%): 79%

Tested on HEK-293T: `O=C1[C@H](Cc2ccc(O)cc2)N2C(=O)CCN(C(=O)NCc3ccccc3)[C@H]2CN1Cc1cccc2ccccc12` . Observed Population Healthy Nuclei (%): 82%

Tested on HEK-293T: O=C(NCCN1CCC(n2c(=O)[nH]c3cc(Cl)ccc32)CC1)c1ccc(F)cc1 [HALOPEMIDE] . Observed Population Healthy Nuclei (%): 72%

Tested on HEK-293T: `CC[C@@H](C)Nc1nc(C)nc2c(-c3ccc(OC)nc3C)c(C)nn12` . Observed Population Healthy Nuclei (%): 74%

Tested on HEK-293T: `CCCOc1ccc2[nH]cc(C3=CCNCC3)c2n1.Cl` . Observed Population Healthy Nuclei (%): 82%

Tested on HEK-293T: `CCCCC1=NC2(CCCC2)C(=O)N1Cc1ccc(-c2ccccc2-c2nnn[nH]2)cc1` . Observed Population Healthy Nuclei (%): 78%

Tested on HEK-293T: `CC(C)c1noc(N2CCC(COc3ccc(-c4ccc(S(C)(=O)=O)cc4)nc3)CC2)n1` . Observed Population Healthy Nuclei (%): 78%

Tested on HEK-293T: `O=C(CCCc1ccccc1)Nc1nc2ccccc2c(=O)s1` . Observed Population Healthy Nuclei (%): 74%

Tested on HEK-293T: `CC(C)COc1ccc(CNC(=O)N(Cc2ccc(F)cc2)C2CCN(C)CC2)cc1` . Observed Population Healthy Nuclei (%): 64%

Tested on HEK-293T: `CCc1cc2cc(NS(=O)(=O)c3ccc(C#N)cc3)ccc2n(CC)c1=O` . Observed Population Healthy Nuclei (%): 69%
